Where do the numbers come from? From ChEMBL document CHEMBL2218924.

# TESTED_SYSTEM: Myosin light chain kinase, smooth muscle (Homo sapiens) (UniProt Q15746)
# Sequence (Q15746 whole entry): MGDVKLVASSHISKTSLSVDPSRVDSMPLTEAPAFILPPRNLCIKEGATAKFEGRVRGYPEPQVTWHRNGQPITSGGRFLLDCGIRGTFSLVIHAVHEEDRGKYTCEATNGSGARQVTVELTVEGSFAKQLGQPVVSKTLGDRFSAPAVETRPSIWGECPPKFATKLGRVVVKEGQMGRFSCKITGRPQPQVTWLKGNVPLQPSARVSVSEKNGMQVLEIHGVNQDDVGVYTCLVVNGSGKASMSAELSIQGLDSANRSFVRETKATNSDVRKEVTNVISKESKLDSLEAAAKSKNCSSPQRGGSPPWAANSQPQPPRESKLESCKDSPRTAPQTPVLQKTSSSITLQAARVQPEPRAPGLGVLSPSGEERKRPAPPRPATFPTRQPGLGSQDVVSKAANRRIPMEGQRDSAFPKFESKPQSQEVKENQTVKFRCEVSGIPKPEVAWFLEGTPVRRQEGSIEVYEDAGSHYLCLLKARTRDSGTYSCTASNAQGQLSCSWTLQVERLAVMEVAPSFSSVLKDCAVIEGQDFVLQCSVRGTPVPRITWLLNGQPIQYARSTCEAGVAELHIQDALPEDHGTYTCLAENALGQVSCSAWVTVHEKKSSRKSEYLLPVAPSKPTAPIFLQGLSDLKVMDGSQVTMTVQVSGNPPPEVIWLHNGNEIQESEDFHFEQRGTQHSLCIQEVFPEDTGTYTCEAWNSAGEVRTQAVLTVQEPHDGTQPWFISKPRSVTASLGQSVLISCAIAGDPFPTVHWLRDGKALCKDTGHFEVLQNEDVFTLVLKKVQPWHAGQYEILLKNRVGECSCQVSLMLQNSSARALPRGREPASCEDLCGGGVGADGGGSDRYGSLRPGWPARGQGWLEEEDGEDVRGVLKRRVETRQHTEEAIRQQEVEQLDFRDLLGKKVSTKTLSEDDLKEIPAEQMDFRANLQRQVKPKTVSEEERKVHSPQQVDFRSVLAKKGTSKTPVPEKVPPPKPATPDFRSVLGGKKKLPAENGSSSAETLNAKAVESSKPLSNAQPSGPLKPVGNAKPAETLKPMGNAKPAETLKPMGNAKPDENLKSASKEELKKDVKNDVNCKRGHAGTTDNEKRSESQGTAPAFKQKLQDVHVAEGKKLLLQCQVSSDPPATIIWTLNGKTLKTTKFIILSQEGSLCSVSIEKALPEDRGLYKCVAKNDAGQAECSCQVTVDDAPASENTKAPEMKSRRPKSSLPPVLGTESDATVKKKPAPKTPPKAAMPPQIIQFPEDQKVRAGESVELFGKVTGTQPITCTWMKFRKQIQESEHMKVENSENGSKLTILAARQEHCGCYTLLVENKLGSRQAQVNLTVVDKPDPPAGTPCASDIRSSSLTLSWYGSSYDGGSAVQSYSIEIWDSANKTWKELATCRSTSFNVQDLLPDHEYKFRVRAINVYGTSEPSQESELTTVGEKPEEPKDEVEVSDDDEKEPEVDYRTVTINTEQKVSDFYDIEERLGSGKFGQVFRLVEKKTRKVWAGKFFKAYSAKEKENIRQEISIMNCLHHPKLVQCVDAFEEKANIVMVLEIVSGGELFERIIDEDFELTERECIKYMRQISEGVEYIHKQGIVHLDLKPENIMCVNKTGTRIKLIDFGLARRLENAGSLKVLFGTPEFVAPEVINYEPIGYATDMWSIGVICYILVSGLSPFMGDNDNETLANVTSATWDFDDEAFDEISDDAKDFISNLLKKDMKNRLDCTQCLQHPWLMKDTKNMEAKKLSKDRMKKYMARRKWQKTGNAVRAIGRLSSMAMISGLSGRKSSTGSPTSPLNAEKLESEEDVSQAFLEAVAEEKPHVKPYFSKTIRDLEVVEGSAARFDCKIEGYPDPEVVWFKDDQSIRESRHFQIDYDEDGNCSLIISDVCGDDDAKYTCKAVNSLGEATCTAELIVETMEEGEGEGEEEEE
# SETUP_CONDITIONS: at 1 µM
READOUT_NAME: residual activity (%)
The answer is to be given in %; state only the numeric part.

Request: Form field: reported residual activity of C[S+]([O-])c1ccc(-c2nc(-c3ccc(F)cc3)c(-c3ccncc3)[nH]2)cc1 (centres undefined)
Response: 118

Request: What do you have for `O=C1c2ccccc2-c2nc3nnnn3nc21` ?
Response: 79

Request: What do you have for `O=C1NC(=O)c2c1c1c3ccccc3n3c1c1c2c2ccccc2n1C1CCC3O1` ?
Response: 90

Request: What do you have for `O=c1[nH]c2ccccc2n1C1CCN(Cc2ccc(-c3nc4cc5[nH]cnc5cc4nc3-c3ccccc3)cc2)CC1` ?
Response: 76
